Test: Half life in rat
Format: ADME, organism-based
Details: in vivo
In plain terms, low half-life, meaning strictly below 200 min, gives T, and everything else gives F.

Molecule | Assigned class
N[C@@H](CC(=O)N1CCn2nc(C(F)(F)F)nc2C1Cn1cncn1)Cc1cc(F)c(F)cc1F (stereo not given in full) | T

Task: Determine if N[C@@H](CC(=O)N1CCn2nc(C(F)(F)F)nc2C1Cn1ccnc1)Cc1cc(F)c(F)cc1F (stereo not given in full) shows half-life strictly lower than 200 min.
Output: F

Task: Please state whether half-life is below 200 min for "N[C@@H](CC(=O)N1CCn2nc(C(F)(F)F)nc2[C@H]1Cc1ccc(F)cc1)Cc1cc(F)c(F)cc1F"
Output: T

Task: Bench note: check whether "N[C@@H](CC(=O)N1CCn2nc(C(F)(F)F)nc2C1)Cc1cc(F)c(F)cc1F" shows half-life below 200 min
Output: F

Task: Given N[C@@H](CC(=O)N1CCn2nc(C(F)(F)F)nc2[C@@H]1C(O)C1CC1)Cc1cc(F)c(F)cc1F (stereo not given in full) , is recorded half-life strictly lower than 200 min?
Output: F

====

Experiment: Half life in rat
Assay type: ADME, organism-based
Settings: in vivo
Attribute measured: half-life (h)
Give your result in h as a bare value.

// below: answered molecules
Molecule | Attribute measured | Endpoint value
N[C@@H](CC(=O)N1CCn2nc(C(F)(F)F)nc2C1Cn1cccn1)Cc1cc(F)c(F)cc1F (stereo partly drawn) | half-life | 2.3
N[C@@H](CC(=O)N1CCn2nc(C(F)(F)F)nc2[C@@H]1C(O)C1CC1)Cc1cc(F)c(F)cc1F (stereo partly drawn) | half-life | 5.1

// next item, half-life requested
Task: Return reported half-life. Input molecule: "C[C@@H]1c2nc(C(F)(F)F)nn2CCN1C(=O)C[C@H](N)Cc1cc(F)c(F)cc1F"
Output: 4

====

The entries below are paired with their reported pIC50.
Target: Dipeptidyl peptidase 9 (Homo sapiens, UniProt Q86TI2)
Sequence (Q86TI2 whole entry): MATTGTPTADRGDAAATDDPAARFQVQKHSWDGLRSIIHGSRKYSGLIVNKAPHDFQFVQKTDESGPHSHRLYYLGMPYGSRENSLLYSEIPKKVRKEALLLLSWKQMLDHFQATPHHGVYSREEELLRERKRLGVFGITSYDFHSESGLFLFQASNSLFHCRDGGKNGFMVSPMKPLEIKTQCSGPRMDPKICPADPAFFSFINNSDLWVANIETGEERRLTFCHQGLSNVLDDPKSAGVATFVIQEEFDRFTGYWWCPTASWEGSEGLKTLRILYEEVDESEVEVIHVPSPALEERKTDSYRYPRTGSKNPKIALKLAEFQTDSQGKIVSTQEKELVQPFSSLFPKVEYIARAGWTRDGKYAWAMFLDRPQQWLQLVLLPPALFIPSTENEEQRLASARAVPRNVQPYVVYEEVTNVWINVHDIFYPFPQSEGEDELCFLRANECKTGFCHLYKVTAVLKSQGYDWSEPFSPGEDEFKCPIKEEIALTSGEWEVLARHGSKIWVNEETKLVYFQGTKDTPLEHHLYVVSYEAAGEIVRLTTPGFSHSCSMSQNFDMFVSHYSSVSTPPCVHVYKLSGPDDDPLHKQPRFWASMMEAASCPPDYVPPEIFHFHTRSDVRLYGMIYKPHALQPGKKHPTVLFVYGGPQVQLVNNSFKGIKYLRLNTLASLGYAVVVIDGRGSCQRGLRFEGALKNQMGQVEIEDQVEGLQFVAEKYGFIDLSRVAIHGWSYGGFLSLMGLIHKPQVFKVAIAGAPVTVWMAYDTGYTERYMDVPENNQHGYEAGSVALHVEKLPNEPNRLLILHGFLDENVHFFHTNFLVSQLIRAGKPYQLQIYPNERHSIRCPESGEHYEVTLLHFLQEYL
pIC50: −log10 of the molar value.

Molecule | pIC50
N[C@@H](CC(=O)N1CCn2nc(C(F)(F)F)nc2C1Cn1cncn1)Cc1cc(F)c(F)cc1F (some centres not stated) | < 4.00

Task: Provide pIC50, recorded with Dipeptidyl peptidase 9 (Homo sapiens, UniProt Q86TI2), of "C[C@@H]1c2nc(C(F)(F)F)nn2CCN1C(=O)C[C@H](N)Cc1cc(F)c(F)cc1F"
Output: < 4.00

====

Assay: Plasma clearance in rhesus monkey
Format: ADME, organism-based, Macaca mulatta
Here, each record is paired with measured clearance data.
# number only, unit L/h/kg dropped from output

Compound | Attribute measured | Endpoint value
C[C@@H]1c2nc(C(F)(F)F)nn2CCN1C(=O)C[C@H](N)Cc1cc(F)c(F)cc1F | clearance | 0.96

Task: Answer with reported clearance of N[C@@H](CC(=O)N1CCn2c(nnc2C(F)(F)F)C1)Cc1cc(F)c(F)cc1F [SITAGLIPTIN]
Output: 1.68

====

Below are pIC50 values measured for Dipeptidyl peptidase 2 (Homo sapiens, UniProt Q9UHL4).
Remember the convention: pIC50 equals -log10 of concentration in molar.

Example results:
Molecule | Endpoint value
C[C@@H]1c2nc(C(F)(F)F)nn2CCN1C(=O)C[C@H](N)Cc1cc(F)c(F)cc1F | 4.60
N[C@@H](CC(=O)N1CCn2nc(C(F)(F)F)nc2C1Cn1cncn1)Cc1cc(F)c(F)cc1F (stereo not given in full) | 4.31
N[C@@H](CC(=O)N1CCn2nc(C(F)(F)F)nc2C1Cn1ccnc1)Cc1cc(F)c(F)cc1F (stereo not given in full) | 4.59

With those in mind, consider the next molecule.
Task: Give reported pIC50 value for N[C@@H](CC(=O)N1CCn2nc(C(F)(F)F)nc2[C@@H]1C(F)C1CC1)Cc1cc(F)c(F)cc1F (stereo in doubt; 34d)
Output: 5.39
